Values were extracted from paper PMC10135569.

- Test system: hiPSC-CMs (iCell2 Cardiomyocytes) 2D monolayers
- assay_info: Membrane potential (action potential) recordings with FluoVolt voltage-sensitive dye on the CellOPTIQ platform
- Format: cell-based, human
- measurement_conditions: Homo sapiens, Cardiomyocyte, 0.5 h, FM monolayer; 0.3 µM; 30 min; delta over DMSO 0.1%; read-out: APD30 (%DD)
recorded_metric: activity at 0.3 µM (%)
Quick reminder: number only, in %, skip the unit.

Please give the measured activity at 0.3 µM for this molecule: C[N+](C)(C)CCOC(N)=O
102

Field entry: COc1ccc([C@@H]2Sc3ccccc3N(CCN(C)C)C(=O)[C@@H]2OC(C)=O)cc1
60

Field entry: C[C@@H]1CC(=O)NN=C1c1ccc(NN=C(C#N)C#N)cc1
101

Field entry: C=C[C@H]1C[N@@]2CC[C@H]1C[C@@H]2[C@@H](O)c1ccnc2ccc(OC)cc12
105

Field entry: CC(C)NCC(O)c1ccc(O)c(O)c1 (stereo not drawn)
62

Others:
Please give the measured activity at 0.3 µM for this molecule: Cc1[nH]c(=O)c(C#N)cc1-c1ccncc1
96

----------
- Tested on: hiPSC-CMs (iCell2 Cardiomyocytes) 2D monolayers
- assay_info: Membrane potential (action potential) recordings with FluoVolt voltage-sensitive dye on the CellOPTIQ platform
- Format: cell-based, human
- measurement_conditions: Homo sapiens, Cardiomyocyte, 0.5 h, FM monolayer; 0.1 µM; 30 min; delta over DMSO 0.1%; read-out: CL (%DD)
recorded_metric: activity at 0.1 µM

Please give the measured activity at 0.1 µM for this compound: CC(C)NCC(O)c1ccc(O)c(O)c1 (stereo not shown) [Isoprenaline]
56%

Others:
Please give the measured activity at 0.1 µM for this compound: C[N+](C)(C)CCOC(N)=O [Carbachol]
105%

Field entry: COc1ccc([C@@H]2Sc3ccccc3N(CCN(C)C)C(=O)[C@@H]2OC(C)=O)cc1 [Diltiazem]
96%

Field entry: C[C@@H]1CC(=O)NN=C1c1ccc(NN=C(C#N)C#N)cc1 [Levosimendan]
95%

----------
- Tested on: hiPSC-CMs (iCell2 Cardiomyocytes) 2D monolayers
- assay_info: Membrane potential (action potential) recordings with FluoVolt voltage-sensitive dye on the CellOPTIQ platform
- Assay type: cell-based, human
- measurement_conditions: Homo sapiens, Cardiomyocyte, 0.5 h, FM monolayer; 1 µM; 30 min; delta over DMSO 0.1%; read-out: APD90 (%DD)
Below, each entry is listed with its recorded activity at 1 µM.
Quick reminder: number only, in %, skip the unit.

Consider the following illustrative entries.
Please give the measured activity at 1 µM for this molecule: Cc1[nH]c(=O)c(C#N)cc1-c1ccncc1 [Milrinone]
96

Field entry: C[C@@H]1CC(=O)NN=C1c1ccc(NN=C(C#N)C#N)cc1 [Levosimendan]
93

Field entry: C[N+](C)(C)CCOC(N)=O [Carbachol]
110

Field entry: CC(CCc1ccc(O)cc1)NCCc1ccc(O)c(O)c1 (centres unmarked) [Dobutamine]
89

Here is another molecule to look at.
Please give the measured activity at 1 µM for this molecule: C=C[C@H]1C[N@@]2CC[C@H]1C[C@@H]2[C@@H](O)c1ccnc2ccc(OC)cc12 [Quinidine]
122

----------
Below, each entry is listed with its recorded activity at 3 µM.
- Tested on: hiPSC-CMs (iCell2 Cardiomyocytes) 2D monolayers
- assay_info: Membrane potential (action potential) recordings with FluoVolt voltage-sensitive dye on the CellOPTIQ platform
- Assay type: cell-based, human
- measurement_conditions: Homo sapiens, Cardiomyocyte, 0.5 h, FM monolayer; 3 µM; 30 min; delta over DMSO 0.1%; read-out: Trise (%DD)
Returns: string containing the numeric result and its unit.

Consider the following illustrative entries.
Please give the measured activity at 3 µM for this molecule: CC(CCc1ccc(O)cc1)NCCc1ccc(O)c(O)c1 (centres unmarked) [Dobutamine]
100%

Field entry: C[C@@H]1CC(=O)NN=C1c1ccc(NN=C(C#N)C#N)cc1 [Levosimendan]
101%

Field entry: O=C(O)COCCN1CCN(C(c2ccccc2)c2ccc(Cl)cc2)CC1 (centres unmarked) [Cetirizine]
122%

Field entry: O=C1CCCN1CC#CCN1CCCC1 [Oxotremorine]
132%

Here is another molecule to look at.
Please give the measured activity at 3 µM for this molecule: Cc1[nH]c(=O)c(C#N)cc1-c1ccncc1 [Milrinone]
68%

----------
- Tested on: hiPSC-CMs (iCell2 Cardiomyocytes) 2D monolayers
- assay_info: Contractility measurements using video imaging (ContractilityTool / MUSCLEMOTION)
- Type: cell-based, human
- measurement_conditions: Homo sapiens, Cardiomyocyte, 0.5 h, FM monolayer; 3 µM; 30 min; delta over DMSO 0.1%; read-out: CtAmp (%DD)
recorded_metric: activity at 3 µM (%)
Quick reminder: number only, in %, skip the unit.

Please give the measured activity at 3 µM for this compound: CC(CCc1ccc(O)cc1)NCCc1ccc(O)c(O)c1 (stereo not shown) [Dobutamine]
99

----------
- Tested on: hiPSC-CMs (iCell2 Cardiomyocytes) 2D monolayers
- assay_info: Membrane potential (action potential) recordings with FluoVolt voltage-sensitive dye on the CellOPTIQ platform
- Assay type: cell-based, human
- measurement_conditions: Homo sapiens, Cardiomyocyte, 0.5 h, MM monolayer; 0.1 µM; 30 min; delta over DMSO 0.1%; read-out: APD90 (%DD)
Below, each entry is listed with its recorded activity at 0.1 µM.
Quick reminder: number only, in %, skip the unit.

Consider the following illustrative entries.
Please give the measured activity at 0.1 µM for this compound: O=C1CCCN1CC#CCN1CCCC1 [Oxotremorine]
104

Field entry: CC(C)NCC(O)c1ccc(O)c(O)c1 (stereo not drawn) [Isoprenaline]
68

Field entry: C[C@@H]1CC(=O)NN=C1c1ccc(NN=C(C#N)C#N)cc1 [Levosimendan]
96

Others:
Please give the measured activity at 0.1 µM for this compound: C[N+](C)(C)CCOC(N)=O [Carbachol]
107

Field entry: COc1ccc([C@@H]2Sc3ccccc3N(CCN(C)C)C(=O)[C@@H]2OC(C)=O)cc1 [Diltiazem]
77

Field entry: C[C@H]1O[C@@H](O[C@H]2[C@@H](O)C[C@H](O[C@H]3[C@@H](O)C[C@H](O[C@H]4CC[C@@]5(C)[C@H](CC[C@@H]6[C@@H]5C[C@@H](O)[C@]5(C)[C@@H](C7=CC(=O)OC7)CC[C@]65O)C4)O[C@@H]3C)O[C@@H]2C)C[C@H](O)[C@@H]1O [Digoxin]
101

----------
Below, each entry is listed with its recorded activity at 0.1 µM.
- Tested on: hiPSC-CMs (iCell2 Cardiomyocytes) 2D monolayers
- assay_info: Contractility measurements using video imaging (ContractilityTool / MUSCLEMOTION)
- Format: cell-based, human
- measurement_conditions: Homo sapiens, Cardiomyocyte, 0.5 h, MM monolayer; 0.1 µM; 30 min; delta over DMSO 0.1%; read-out: CtAmp (%DD)
Quick reminder: number only, in %, skip the unit.

Please give the measured activity at 0.1 µM for this molecule: CC(C)NCC(O)c1ccc(O)c(O)c1 (stereo not drawn) [Isoprenaline]
121

Field entry: C[C@H]1O[C@@H](O[C@H]2[C@@H](O)C[C@H](O[C@H]3[C@@H](O)C[C@H](O[C@H]4CC[C@@]5(C)[C@H](CC[C@@H]6[C@@H]5C[C@@H](O)[C@]5(C)[C@@H](C7=CC(=O)OC7)CC[C@]65O)C4)O[C@@H]3C)O[C@@H]2C)C[C@H](O)[C@@H]1O [Digoxin]
127

Field entry: COc1ccc([C@@H]2Sc3ccccc3N(CCN(C)C)C(=O)[C@@H]2OC(C)=O)cc1 [Diltiazem]
93

Field entry: C[C@@H]1CC(=O)NN=C1c1ccc(NN=C(C#N)C#N)cc1 [Levosimendan]
120

Field entry: O=C1CCCN1CC#CCN1CCCC1 [Oxotremorine]
106

Here is another molecule to look at.
Please give the measured activity at 0.1 µM for this molecule: C[N+](C)(C)CCOC(N)=O [Carbachol]
135

----------
- System: hiPSC-CMs (iCell2 Cardiomyocytes) 2D monolayers
- assay_info: Membrane potential (action potential) recordings with FluoVolt voltage-sensitive dye on the CellOPTIQ platform
- Format: cell-based, human
- measurement_conditions: Homo sapiens, Cardiomyocyte, 0.5 h, FM monolayer; 1 µM; 30 min; delta over DMSO 0.1%; read-out: CL (%DD)
recorded_metric: activity at 1 µM (%)
Quick reminder: number only, in %, skip the unit.

Please give the measured activity at 1 µM for this compound: C[N+](C)(C)CCOC(N)=O [Carbachol]
114

Field entry: Cc1[nH]c(=O)c(C#N)cc1-c1ccncc1 [Milrinone]
99

Field entry: C[C@@H]1CC(=O)NN=C1c1ccc(NN=C(C#N)C#N)cc1 [Levosimendan]
93

Here is another compound to look at.
Please give the measured activity at 1 µM for this compound: CC(CCc1ccc(O)cc1)NCCc1ccc(O)c(O)c1 (stereo not shown) [Dobutamine]
76

----------
- Tested on: hiPSC-CMs (iCell2 Cardiomyocytes) 2D monolayers
- assay_info: Contractility measurements using video imaging (ContractilityTool / MUSCLEMOTION)
- Format: cell-based, human
- measurement_conditions: Homo sapiens, Cardiomyocyte, 0.5 h, MM monolayer; 0.3 µM; 30 min; delta over DMSO 0.1%; read-out: CtD50 (%DD)
Below, each entry is listed with its recorded activity at 0.3 µM.
Quick reminder: number only, in %, skip the unit.

Consider the following illustrative entries.
Please give the measured activity at 0.3 µM for this compound: O=C1CCCN1CC#CCN1CCCC1
117

Field entry: COc1ccc([C@@H]2Sc3ccccc3N(CCN(C)C)C(=O)[C@@H]2OC(C)=O)cc1
61

Field entry: C[C@@H]1CC(=O)NN=C1c1ccc(NN=C(C#N)C#N)cc1
102

Field entry: Cc1[nH]c(=O)c(C#N)cc1-c1ccncc1
100

Field entry: CC(C)NCC(O)c1ccc(O)c(O)c1 (centres unmarked)
57

Others:
Please give the measured activity at 0.3 µM for this compound: C=C[C@H]1C[N@@]2CC[C@H]1C[C@@H]2[C@@H](O)c1ccnc2ccc(OC)cc12
107

Field entry: C[C@H]1O[C@@H](O[C@H]2[C@@H](O)C[C@H](O[C@H]3[C@@H](O)C[C@H](O[C@H]4CC[C@@]5(C)[C@H](CC[C@@H]6[C@@H]5C[C@@H](O)[C@]5(C)[C@@H](C7=CC(=O)OC7)CC[C@]65O)C4)O[C@@H]3C)O[C@@H]2C)C[C@H](O)[C@@H]1O
43

Field entry: C[N+](C)(C)CCOC(N)=O
111
